meta.source: paper PMC10244618

B1: NF2 (merlin) isoform 7, human, full length (507 aa, lacks exons 2-3 = isoform-1 residues 39-121; exon-16 C-terminus), P35240-4 (parent)
chain: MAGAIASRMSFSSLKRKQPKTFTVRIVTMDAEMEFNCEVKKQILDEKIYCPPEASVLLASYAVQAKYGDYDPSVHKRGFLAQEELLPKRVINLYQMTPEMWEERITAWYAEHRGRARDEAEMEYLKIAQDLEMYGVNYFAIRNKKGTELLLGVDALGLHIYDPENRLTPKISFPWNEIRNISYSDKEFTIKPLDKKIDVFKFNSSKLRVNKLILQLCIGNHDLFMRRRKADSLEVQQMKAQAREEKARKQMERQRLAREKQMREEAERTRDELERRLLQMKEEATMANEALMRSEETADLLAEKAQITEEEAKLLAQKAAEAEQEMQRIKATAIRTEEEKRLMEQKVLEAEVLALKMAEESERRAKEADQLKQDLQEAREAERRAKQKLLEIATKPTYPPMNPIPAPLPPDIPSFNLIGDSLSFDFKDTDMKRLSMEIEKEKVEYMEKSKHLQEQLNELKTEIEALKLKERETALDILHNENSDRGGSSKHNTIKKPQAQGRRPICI

Variants of: B1
experiment-notes: reverse yeast two-hybrid deep mutational scan (rY2H-seq): NF2 isoform 7 mutant library as bait mated with wild-type prey strains; selection on medium lacking adenine for non-interacting pairs; NextSeq paired-end sequencing; enrichment vs …
condition-set: with KDM1A (lysine-specific histone demethylase 1A; the table's label AOF2 is a gene synonym of KDM1A), O60341; yeast diploids after mating (RBait_S3 x RPrey_S3), 30 °C, selection for reporter genes on NB agar; human tyrosine kinase ABL2 co-expressed as the active kinase …; HIGHER = WEAKER BINDING (the opposite of display enrichments): higher = stronger loss of interaction: reverse Y2H selects yeast in which bait and prey do NOT interact (growth without adenine), so a …; hits-only table; scale: rY2H score; numbering: uniprot, sequence starts at 1
Note to self: values exactly at 4 are fulfilled. So enrichment at or above 4 is fulfilled, below is not fulfilled.

• A333L = not fulfilled
• S489L = not fulfilled
• K304A = not fulfilled

Challenge: Tell me whether enrichment is at least 4 here: `P87S`
Response given: not fulfilled

Challenge: Assess whether reported enrichment for `H221Y` sits at 4 or higher.
Response given: not fulfilled

Challenge: Could you tell me if the measured enrichment of `T397I` reaches 4 or more?
Response given: fulfilled
